test.description: chemical genetic growth profiling, strain panel (AID 1159580);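 further: tested at 20 µM; growth read once vehicle control cultures reached saturation at 30 °C; 1 = growth at the plate median or of vehicle wells; lower values mean less growth of the strain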
setup.conditions: S. cerevisiae deletion strains, growth OD, locus YDL101C, strain DUN1, active compounds read low
In all, about 5,500 compounds went through this assay and about 2,000 (36%) were called active. Not shown: some 18% with an inconclusive outcome. Some of the results follow.
quantity: normalized growth

In the examples that follow, each entry is paired with its recorded normalized growth.
CSc1c(-c2ccccc2)c(N)nn1S(=O)(=O)c1ccccc1
0.978 (inactive)
CCOC(=O)N=Nc1c(O)[nH]c2ccc(F)cc12
1.01 (inactive)
N#CCCN(CC1CCCO1)C(=S)Nc1cc(C(F)(F)F)cc(C(F)(F)F)c1 (stereo unspecified)
0.991 (inactive)
CCOC(=O)C1C(c2c(F)cccc2Cl)C(C(=O)OCC)C(O)(C(F)(F)F)NC1(O)C(F)(F)F (stereo unspecified)
0.983 (inactive)
C/C=C(\C)C(=O)O[C@H]1C[C@@H](OC(C)=O)[C@@]2(C(=O)OC)CO[C@@H]3C2[C@]12CO[C@](O)(C(=O)OC)[C@H]2[C@](C)(C12O[C@@]1(C)[C@H]1C[C@@H]2OC2OC=C[C@@]21O)[C@@H]3O (stereo partly specified)
0.977 (inactive)

Turning now to a further molecule:
Form field: reported normalized growth of `CSc1nc(N)n(-c2ccccc2)n1` 1 (inactive)

====

test.description: chemical genetic growth profiling, strain panel (AID 1159580)
setup.conditions: S. cerevisiae deletion strains, growth OD, locus YDR335W, strain msn5, active compounds read low
The campaign covered roughly 5,500 compounds. About 2,000 (36%) were called active. Not shown: some 18% with an inconclusive outcome. Some of the results follow.
Decide using normalized growth alone. Strictly below 1: Yes. Equal to or above 1: No.

// below: answered molecules
COc1ccc(-c2coc3cc(O)ccc3c2=O)c(O)c1O
Yes
CC[C@@H](C(=O)C(C)[C@@H](O)[C@H](C)CCc1ccc(C)c(O)c1C(=O)O)C1OC(CC)(C2CC[C@](O)(CC)[C@H](C)O2)C[C@@H]1C (stereo partly specified)
No
CCN1CCCC(OC(=O)C(c2ccccc2)c2ccccc2)C1 (stereo unspecified)
Yes
COc1cc(CNC(=O)CCCC/C=C/C(C)C)ccc1O
Yes
COc1ccc2c(c1)OC/C(=C/c1ccc(OC)c(OC)c1)C2=O
Yes
NCCS(=O)(=O)O
Yes

I'd appreciate it if you could check whether COc1cc([C@@H]2c3cc4c(cc3C(OC3O[C@@H]5COC(C)O[C@H]5[C@H](O)[C@H]3O)C3COC(=O)[C@@H]32)OCO4)cc(OC)c1O (stereo partly specified) has normalized growth smaller than 1. No

====

Entries and their normalized growth
test.description: chemical genetic growth profiling, strain panel (AID 1159580)
setup.conditions: S. cerevisiae deletion strains, growth OD, locus YER015W, strain faa2, active compounds read low
The whole screen tested about 5,500 compounds, of which about 2,000 (36%) were called active. Inconclusive results (about 18%) are left out. The list shows a part of the results.
Keep the answer to the number alone.

In the examples that follow, each entry is paired with its recorded normalized growth.
COc1cc([C@@H]2c3cc4c(cc3C(OC3O[C@@H]5COC(C)O[C@H]5[C@H](O)[C@H]3O)C3COC(=O)[C@@H]32)OCO4)cc(OC)c1O (some centres not stated)
1.03
c1ccc2c(c1)sc1ccccc12
0.765
C/C=C(\C)C(=O)O[C@H]1C[C@@H](OC(C)=O)[C@@]2(C(=O)OC)CO[C@@H]3C2[C@]12CO[C@](O)(C(=O)OC)[C@H]2[C@](C)(C12O[C@@]1(C)[C@H]1C[C@@H]2OC2OC=C[C@@]21O)[C@@H]3O (some centres not stated)
0.987
O=C(Oc1cc(O)cc2c1C[C@@H](OC(=O)c1cc(O)c(O)c(O)c1)[C@@H](c1cc(O)c(O)c(O)c1)O2)c1cc(O)c(O)c(O)c1
0.989
CC#CC1(O)CCC2C3CCC4=CC(=O)CCC4=C3C(c3ccc(N(C)C)cc3)CC21C (configuration not stated)
0.996

Form field: reported normalized growth of `NCCCS(=O)(=O)O` 0.994

Can you check `CC(=O)Oc1cc(OC(C)=O)c2c(c1)O[C@H](c1ccc(OC(C)=O)c(OC(C)=O)c1)[C@@H](OC(C)=O)C2` next? 0.995

Can you check `COC(=O)/C=C/C(C)=C/C=C/C(C)=C/C=C/C=C(C)/C=C/C=C(C)/C=C/C(=O)O` next? 1.02

Can you check `C#CCN(C)Cc1ccccc1` next? 1

Can you check `OCCc1ccccc1` next? 0.987

Can you check `O=C(O[C@@H]1Cc2c(O)cc(O)cc2O[C@@H]1c1ccc(O)c(O)c1)c1cc(O)c(O)c(O)c1` next? 0.808

Can you check `O=C(O)CCCc1ccc(N(CCCl)CCCl)cc1` next? 0.973

====

test.description: chemical genetic growth profiling, strain panel (AID 1159580)
setup.conditions: S. cerevisiae deletion strains, growth OD, locus YDL101C, strain DUN1, active compounds read low
The whole screen tested about 5,500 compounds, of which about 2,000 (36%) were called active. Inconclusive results (about 18%) are left out. The list shows a part of the results.
quantity: normalized growth
Keep the answer to the number alone.

CCC(C)C(=O)O[C@@H]1C[C@@]2(C)[C@H](c3ccoc3)OC(=O)CC23OC2(C)OC34[C@H](OC(=O)C(C)C)[C@@]3(O)[C@@H](OC(=O)C5(C)OC5C)[C@@]5(C)C[C@]3(O)[C@@](C)([C@H]5CC(=O)OC)C14O2 (stereo not given in full)
1.03
Cc1nn(C)c(C(=O)Sc2ccc(OC(F)(F)F)cc2)c1[N+](=O)[O-]
0.978
CC(=O)S[C@@H]1CC2=CC(=O)CC[C@]2(C)[C@H]2CC[C@@]3(C)[C@@H](CC[C@@]34CCC(=O)O4)C12 (stereo not given in full)
1.01

Form field: reported normalized growth of `CC1(C)CC(=O)C=C(Sc2nc3ccccc3o2)C1` 0.958

====

test.description: chemical genetic growth profiling, strain panel (AID 1159580);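 further: tested at 20 µM; growth read once vehicle control cultures reached saturation at 30 °C; 1 = growth at the plate median or of vehicle wells; lower values mean less growth of the strain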
setup.conditions: S. cerevisiae deletion strains, growth OD, locus YOR119C, strain RIO1, active compounds read low
Out of some 5,500 compounds screened, about 2,000 (36%) were called active. Another 18% or so got no clear call; they are omitted. The list shows a part of the results.
Entries and their normalized growth
Keep the answer to the number alone.

In the examples that follow, each entry is paired with its recorded normalized growth.
Cc1ccc(S(=O)(=O)NC(=O)Nc2ccc(Sc3ccccc3)nc2Sc2ccccc2)cc1
0.98
CC1(C)CC(=O)C=C(Sc2nc3ccccc3o2)C1
1.01
CCCN(CCC)C(=S)NC(=O)c1cccc([N+](=O)[O-])c1
0.996

Turning now to a further molecule:
Form field: reported normalized growth of `O=C(NCc1ccc(Cl)c(Cl)c1)c1cccnc1OCC(F)(F)F` 1.01

====

Entries and their normalized growth
test.description: chemical genetic growth profiling, strain panel (AID 1159580);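 further: tested at 20 µM; growth read once vehicle control cultures reached saturation at 30 °C; 1 = growth at the plate median or of vehicle wells; lower values mean less growth of the strain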
setup.conditions: S. cerevisiae deletion strains, growth OD, locus YHR082C, strain KSP1, active compounds read low
In all, about 5,500 compounds went through this assay and about 2,000 (36%) were called active. Not shown: some 18% with an inconclusive outcome. The list shows a part of the results.
Keep the answer to the number alone.

In the examples that follow, each entry is paired with its recorded normalized growth.
COc1cccc(C2CCN(C(=O)c3cccc4ccccc34)CC2)c1
0.946
CC(=O)/C(C#N)=N\Nc1ccc(F)cc1
0.171
N#C/C(=N/Nc1ccc(F)cc1)C(=O)c1ccccc1
0.762
Cc1ccc(S(=O)(=O)NC(=O)Nc2ccc(Sc3ccccc3)nc2Sc2ccccc2)cc1
1.03
N/C(CCSc1ccc(Cl)cc1)=N/OC(=O)Nc1ccc(Cl)cc1
0.114
O=C(/C=C/c1ccc2c(c1)OCO2)Nc1ccc(Br)cc1
0.965
Cc1nn(C)c(C(=O)Sc2ccc(OC(F)(F)F)cc2)c1[N+](=O)[O-]
0.947
Cc1cc(C)cc(Sc2ccc3nnc(-c4ccccc4)n3n2)c1
1.07

Turning now to a further molecule:
Form field: reported normalized growth of `O=C(NCc1ccc(Cl)c(Cl)c1)c1cccnc1OCC(F)(F)F` 1.06

====

test.description: chemical genetic growth profiling, strain panel (AID 1159580);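 further: tested at 20 µM; growth read once vehicle control cultures reached saturation at 30 °C; 1 = growth at the plate median or of vehicle wells; lower values mean less growth of the strain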
setup.conditions: S. cerevisiae deletion strains, growth OD, locus YOR001W, strain rrp6, active compounds read low
Hit rate of the full screen: of about 5,500 compounds, about 2,000 (36%) were called active. Inconclusive results (about 18%) are left out. This is one part of the list.
Entries and their normalized growth
Keep the answer to the number alone.

In the examples that follow, each entry is paired with its recorded normalized growth.
O=C(O)/C=C/c1ccc(O)c(O)c1
1.02
COc1cc(CNC(=O)CCCC/C=C/C(C)C)ccc1O
0.956
COc1ccc(C2CNC(=O)C2)cc1OC1CCCC1 (stereo not drawn)
1
Oc1cc(O)c2c(c1)O[C@H](c1cc(O)c(O)c(O)c1)[C@H](O)C2
1.03
O=C(/C=C/c1ccc(O)c(O)c1)OCCc1ccccc1
0.8
CCCc1cc(C(N)=S)ccn1
0.938
CC[C@]1(O)CC2CN(CCc3c([nH]c4ccccc34)[C@@](C(=O)OC)(c3cc4c(cc3OC)N(C)[C@H]3[C@@](O)(C(=O)OC)[C@H](OC(C)=O)[C@]5(CC)C=CCN6CC[C@]43[C@@H]65)C2)C1 (stereo partly drawn)
0.923

Turning now to a further molecule:
Form field: reported normalized growth of `O=C(Oc1cc(O)cc2c1C[C@@H](OC(=O)c1cc(O)c(O)c(O)c1)[C@@H](c1cc(O)c(O)c(O)c1)O2)c1cc(O)c(O)c(O)c1` 1.02
